biological target: NET (Homo sapiens); experiment: fluorescence-based norepinephrine uptake assay (Tsuruda et al. 2010); assay type: cell-based
Sequence (P23975 whole entry): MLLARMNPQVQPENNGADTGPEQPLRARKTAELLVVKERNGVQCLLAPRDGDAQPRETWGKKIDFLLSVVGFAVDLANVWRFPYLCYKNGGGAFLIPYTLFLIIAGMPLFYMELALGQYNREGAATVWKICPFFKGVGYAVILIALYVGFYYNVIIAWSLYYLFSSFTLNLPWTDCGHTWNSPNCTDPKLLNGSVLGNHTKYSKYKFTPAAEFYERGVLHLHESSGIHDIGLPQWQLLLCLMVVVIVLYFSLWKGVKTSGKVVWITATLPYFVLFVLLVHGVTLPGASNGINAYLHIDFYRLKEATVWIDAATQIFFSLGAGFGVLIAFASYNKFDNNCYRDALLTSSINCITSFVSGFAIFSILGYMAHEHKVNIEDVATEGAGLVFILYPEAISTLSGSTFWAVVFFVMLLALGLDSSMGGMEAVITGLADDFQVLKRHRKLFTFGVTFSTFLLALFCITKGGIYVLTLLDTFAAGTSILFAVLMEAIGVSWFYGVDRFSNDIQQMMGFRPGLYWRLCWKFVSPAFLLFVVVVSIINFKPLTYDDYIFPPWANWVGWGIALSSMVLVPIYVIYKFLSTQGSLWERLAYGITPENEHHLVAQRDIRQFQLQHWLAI
Property: IC50

Task: What is its IC50 for NET (Homo sapiens)? Entry: CCOC[C@@H](Oc1ccc(C#N)c(Cl)c1)[C@@H]1CCNC1 (stereo in doubt)
Output: ≤ 100 nM

----------
Molecular target: SERT (Homo sapiens, UniProt P31645)
Sequence (P31645 whole entry): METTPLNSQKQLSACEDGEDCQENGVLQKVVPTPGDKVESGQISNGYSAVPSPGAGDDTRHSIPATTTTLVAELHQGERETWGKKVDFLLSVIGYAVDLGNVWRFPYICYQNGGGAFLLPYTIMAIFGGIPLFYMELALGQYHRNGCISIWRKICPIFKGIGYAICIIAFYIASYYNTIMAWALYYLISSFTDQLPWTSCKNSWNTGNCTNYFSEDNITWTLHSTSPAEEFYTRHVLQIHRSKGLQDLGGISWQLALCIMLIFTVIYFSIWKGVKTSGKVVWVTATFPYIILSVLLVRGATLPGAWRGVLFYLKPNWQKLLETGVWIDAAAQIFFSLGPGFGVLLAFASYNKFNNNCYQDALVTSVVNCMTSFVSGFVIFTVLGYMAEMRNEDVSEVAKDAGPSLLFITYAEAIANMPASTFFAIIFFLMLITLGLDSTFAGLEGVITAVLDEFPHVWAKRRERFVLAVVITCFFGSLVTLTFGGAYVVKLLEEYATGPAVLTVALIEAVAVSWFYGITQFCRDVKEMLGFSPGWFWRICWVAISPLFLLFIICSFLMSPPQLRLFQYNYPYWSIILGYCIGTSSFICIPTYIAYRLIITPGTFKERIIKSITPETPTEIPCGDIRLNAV
Assay: hSERT membrane radioligand binding assay (3H-citalopram)
Set-up: expressed in transfected cells; host or cells: HEK-293
Conditions: hSERT membranes (HEK-293), 1.0 nM 3H-citalopram
Text: Membrane radioligand binding assays were used to measure inhibition of labeled ligand (^3H-citalopram or ^3H-nisoxetine or ^3H-WIN35428) binding to membranes prepared from cells expressing the respective human recombinant transporter (hSERT or hNET or hDAT) in order to determine the pKi values of test compounds at the transporters. […]
Property: SERT pKi

Worked cases, answers included:
| Compound | SERT pKi |
| --- | --- |
| COCC(Oc1cccc(Cl)c1Cl)C1CCNC1 (centres unmarked) [Example 4-6] | ≧8.0 |
| COC[C@H](Oc1cccc(Cl)c1Cl)[C@H]1CCNC1 [Example 4-10] | ≧8.0 |
| COCCC(Oc1ccc(Cl)cc1C)C1CCNC1 (single isomer, unassigned) [5 (2nd peak)] | ≧8.0 |
| Cc1c(Cl)cccc1O[C@@H](COC(C)C)[C@@H]1CCNC1 [Example 9-25] | ≧8.0 |

With those in mind, consider the next compound.
Task: # SERT pKi lookup, item COCC(Oc1ccccc1Cl)C1CCNC1 (single isomer, unassigned) [Example 4-2]
Output: ≧7.0
